Assay: chemical genetic growth profiling, strain panel (AID 1159580);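 further: tested at 20 µM; growth read once vehicle control cultures reached saturation at 30 °C; 1 = growth at the plate median or of vehicle wells; lower values mean less growth of the strain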
Details: S. cerevisiae deletion strains, growth OD, locus YNL020C, strain ARK1
About 2,000 (36%) of roughly 5,500 compounds were called active. Another 18% or so got no clear call; they are omitted. No stated cut-off is given here; in the data, active means normalized growth mostly below about 0.91 (no sharp cut-off); inconclusive means no clear call, values can overlap the other calls; inactive means mostly above about 0.92. Some of the results follow.
Field 'call' accepts 1.0 = active, 0.0 = inactive

                                   compound  discrete_label
0  CC(C)(C)C(=O)c1sc2sc(C(=O)C(C)(C)C)c(N)c2c1N             0.0
1  Cc1ccc(OCc2n[nH]c(=S)n2Cc2ccccc2)c2c1CCC2             0.0
2  OC(CSc1ccccc1)CN1CCN(c2nc(-c3ccccc3)ns2)CC1 (stereo unspecified)             0.0
3    CSc1nnc(COc2ccc(C)c3c2CCC3)n1-c1ccccc1             0.0
4  CN1c2ccccc2C(C)(C)C12C=Cc1cc(O)ccc1O2 (stereo unspecified)             0.0

Now take the following compound into account.
What did the test return for Clc1ccc(N/N=C\c2sccc2Oc2ccccc2)cc1 ?
1.0

----------
Listed here: items and their measured normalized growth.
Experiment: chemical genetic growth profiling, strain panel (AID 1159580)
Details: S. cerevisiae deletion strains, growth OD, locus YPL256C, strain CLN2, hits give low values
Screen size: about 5,500 compounds; about 2,000 (36%) were called active. Roughly 18% stayed inconclusive and do not appear here. Some of the results follow.
Lab note: record the figure alone, no unit after it.

Worked cases, normalized growth given:
      structure_notation  test_value
0      CN(C)C(=N)N=C(N)N       0.961
1  CC(=O)Oc1ccccc1C(=O)O        1.03

Here is another compound to look at.
What does the data say about its normalized growth? Entry: CN(C)CCc1c[nH]c2ccc(CS(=O)(=O)N3CCCC3)cc12
0.959

----------
Listed here: items and their measured normalized growth.
Assay: chemical genetic growth profiling, strain panel (AID 1159580)
Settings: S. cerevisiae deletion strains, growth OD, locus YHR079C, strain IRE1 (second series), hits give low values
Out of some 5,500 compounds screened, about 2,000 (36%) were called active. Not shown: some 18% with an inconclusive outcome. The list shows a part of the results.
Lab note: record the figure alone, no unit after it.

COMPOUND	TEST_VALUE
COc1c2ccoc2cc2oc(C)cc(=O)c12	1

What does the data say about its normalized growth? Entry: O=C(O)c1cc([N+](=O)[O-])ccc1NCCCc1ccccc1
0.934

What does the data say about its normalized growth? Entry: COc1cc(/C=C/C=O)cc(OC)c1OC
1

What does the data say about its normalized growth? Entry: CCC1(CC)C(=O)C=CNC1=O
1.01

----------
Experiment: chemical genetic growth profiling, strain panel (AID 1159580)
Details: S. cerevisiae deletion strains, growth OD, locus YPL153C, strain RAD53
Among all 5,500 compounds or so, about 2,000 (36%) were called active. Roughly 18% stayed inconclusive and do not appear here. Rule as the data show it: active = normalized growth mostly below about 0.91 (no sharp cut-off); inconclusive = no clear call, values can overlap the other calls; inactive = mostly above about 0.92. Some of the results follow.
Field 'call' accepts active, inactive

>>> print(df.to_string())
                                   compound  discrete_label
0  N#C/C(=N/Nc1cccc(C(F)(F)F)c1)C(=O)c1csc(-c2cccnc2)n1          active

What did the test return for Clc1ccc(N/N=C\c2sccc2Oc2ccccc2)cc1 ?
active

What did the test return for CCOC(=O)c1cnc2c(c(C)nn2C)c1Sc1nnc(SC)s1 ?
active

What did the test return for O=C(Nc1cc2c(s1)-c1cc(Cl)ccc1SC2)Oc1ccccc1 ?
inactive

What did the test return for CC(C)(C)c1ccc(C(=O)NNC(=S)Nc2ccc(Cl)cc2)cc1 ?
inactive

What did the test return for Cc1ccc(OCc2n[nH]c(=S)n2Cc2ccccc2)c2c1CCC2 ?
active

What did the test return for CN1c2ccccc2C(C)(C)C12C=Cc1cc(O)ccc1O2 (stereo not drawn) ?
inactive

What did the test return for Cc1ccc2nc(-c3ccc([N+](=O)[O-])o3)oc(=O)c2c1 ?
active

What did the test return for O=C(Nc1cccnc1)c1cc2c(s1)-c1ccccc1CC2 ?
active

What did the test return for FC(F)(F)c1cc(-c2ccc(Cl)cc2)n[nH]1 ?
inactive

What did the test return for OC(CSc1ccccc1)CN1CCN(c2nc(-c3ccccc3)ns2)CC1 (stereo not drawn) ?
inactive

What did the test return for COc1ccc(C2CC(c3ccc(C)cc3C)=NN2C(C)=O)cc1 (stereo not drawn) ?
inactive

What did the test return for CC(=O)c1ccccc1C(=O)c1ccc(C(C)(C)C)cc1 ?
inactive

----------
Test: chemical genetic growth profiling, strain panel (AID 1159580);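 further: tested at 20 µM; growth read once vehicle control cultures reached saturation at 30 °C; 1 = growth at the plate median or of vehicle wells; lower values mean less growth of the strain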
Settings: S. cerevisiae deletion strains, growth OD, locus YPL078C, strain atp4, hits give low values
The whole screen tested about 5,500 compounds, of which about 2,000 (36%) were called active. Inconclusive results (about 18%) are left out. The list shows a part of the results.
PARAMETER: normalized growth
Lab note: record the figure alone, no unit after it.

Worked cases, normalized growth given:
COMPOUND	TEST_VALUE
c1ccc2c(Cc3c[nH]c4ccccc34)c[nH]c2c1	0.363
Cc1ccc(N(CC2=NCCN2)c2cccc(O)c2)cc1	1.02
CC(=O)CC1CCCCN1 (stereo unspecified)	1.02
CO[C@H]1C[C@H](O[C@H]2[C@H](C)[C@@H](OC3O[C@H](C)C[C@H](N(C)C)[C@H]3OC(C)=O)[C@@H](C)C[C@]3(CO3)C(=O)[C@H](C)[C@@H](OC(C)=O)[C@@H](C)[C@@H](C)OC(=O)[C@@H]2C)O[C@@H](C)[C@@H]1OC(C)=O (stereo partly specified)	1.01

What does the data say about its normalized growth? Entry: CCNc1nc(Cl)nc(NCC)n1
1.03

What does the data say about its normalized growth? Entry: Cc1c(NC(=O)c2cccnc2)c(=O)n(-c2ccccc2)n1C
1.01

What does the data say about its normalized growth? Entry: OCc1c[nH]c2ccccc12
0.983

What does the data say about its normalized growth? Entry: CC(=O)N[C@@H](Cc1c[nH]c2ccccc12)C(=O)O
0.978

What does the data say about its normalized growth? Entry: C=C(C)[C@@H]1CC[C@]2(CO)CC[C@]3(C)[C@H](CCC4[C@@]5(C)CC[C@H](O)C(C)(C)C5CC[C@]43C)C12 (stereo partly specified)
1.01

What does the data say about its normalized growth? Entry: CC(=O)NO
0.97

What does the data say about its normalized growth? Entry: COc1cc2c(cc1OC)[C@@H]1C(=O)c3ccc4c(c3O[C@@H]1CO2)CC(C(C)C)O4 (stereo partly specified)
0.982

----------
Assay: chemical genetic growth profiling, strain panel (AID 1159580);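 further: tested at 20 µM; growth read once vehicle control cultures reached saturation at 30 °C; 1 = growth at the plate median or of vehicle wells; lower values mean less growth of the strain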
Details: S. cerevisiae deletion strains, growth OD, locus YBR229C, strain ROT2, hits give low values
Screen size: about 5,500 compounds; about 2,000 (36%) were called active. Another 18% or so got no clear call; they are omitted. The list shows a part of the results.
Listed here: items and their measured normalized growth.
Lab note: record the figure alone, no unit after it.

Worked cases, normalized growth given:
MOLECULE	normalized growth
Cc1ccc(-c2nn(-c3ccccc3)c(=O)c3ccccc23)cc1C	0.968
COc1cc(NS(=O)(=O)c2ccc(N)cc2)ncn1	0.955
Cc1ccc(N=Cc2cccs2)cc1Cl	0.998
CO[C@@]1(NC(=O)Cc2cccs2)C(=O)N2C(C(=O)O)=C(COC(N)=O)CS[C@@H]21	1.01
CCNc1nc(Cl)nc(NCC)n1	0.993
CC1(C)C(=O)[C@@H]2O[C@@H]2[C@@]2(C)C1CC(=O)[C@]1(C)C2CC[C@@]2(C)[C@H](c3ccoc3)OC(=O)[C@H]3O[C@]321 (some centres undefined)	0.984
COc1cccc(Nc2nc3ccccc3s2)c1	0.709
O=C(c1cccc([N+](=O)[O-])c1)c1cc2cc(Br)cc(Br)c2o1	0.997
CC(=O)O[C@H]1CC[C@]2(C)C3CC[C@@]4(C)C(CC5O[C@@]6(CCC(C)CO6)[C@@H](C)C54)C3CC[C@@H]2C1 (some centres undefined)	0.99
N#Cc1ccc(Oc2ccc(Cl)cc2)nc1	0.975

What does the data say about its normalized growth? Entry: N#Cc1sccc1Br
0.982

What does the data say about its normalized growth? Entry: COC(=O)c1ccccc1CSc1nccc(C(F)(F)F)n1
0.938

What does the data say about its normalized growth? Entry: NC1C[C@H]1c1ccccc1 (some centres undefined)
1

----------
Assay: chemical genetic growth profiling, strain panel (AID 1159580);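 further: tested at 20 µM; growth read once vehicle control cultures reached saturation at 30 °C; 1 = growth at the plate median or of vehicle wells; lower values mean less growth of the strain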
Details: S. cerevisiae deletion strains, growth OD, locus YBR009C, strain hhf1, hits give low values
Out of some 5,500 compounds screened, about 2,000 (36%) were called active. Inconclusive results (about 18%) are left out. This is one part of the list.
PARAMETER: normalized growth
Lab note: record the figure alone, no unit after it.

COMPOUND	normalized growth
NC[C@H]1O[C@H](O[C@H]2C(O[C@@H]3O[C@H](CO)[C@@H](O)[C@H]3O)[C@@H](O)[C@H](N)C[C@@H]2N)[C@H](N)[C@@H](O)[C@@H]1O (some centres not stated)	0.975

What does the data say about its normalized growth? Entry: CCOc1ccc(C(=O)c2ccc(OC)c(O)c2O)cc1
0.962

What does the data say about its normalized growth? Entry: CO[C@H]1C[C@H](O[C@H]2[C@H](C)[C@@H](OC3O[C@H](C)C[C@H](N(C)C)[C@H]3OC(C)=O)[C@@H](C)C[C@]3(CO3)C(=O)[C@H](C)[C@@H](OC(C)=O)[C@@H](C)[C@@H](C)OC(=O)[C@@H]2C)O[C@@H](C)[C@@H]1OC(C)=O (some centres not stated)
0.997

What does the data say about its normalized growth? Entry: CCNc1nc(Cl)nc(NCC)n1
0.995

What does the data say about its normalized growth? Entry: C#C[C@]1(O)CCC2C3CCC4=Cc5oncc5C[C@]4(C)C3CC[C@@]21C (some centres not stated)
0.918

What does the data say about its normalized growth? Entry: CC(=O)NO
0.942

What does the data say about its normalized growth? Entry: NCCNCCNCCN
1.01

What does the data say about its normalized growth? Entry: CCOc1ccc(NC(C)=O)cc1
1.01

What does the data say about its normalized growth? Entry: CC1(C)S[C@@H]2[C@H](NC(=O)Cc3ccccc3)C(=O)N2[C@H]1C(=O)O
1.03

What does the data say about its normalized growth? Entry: Cc1onc(-c2c(Cl)cccc2Cl)c1C(=O)N[C@@H]1C(=O)N2[C@@H]1SC(C)(C)[C@@H]2C(=O)O
1

What does the data say about its normalized growth? Entry: C[C@]12CCC(=O)C=C1CCC1C2C(=O)C[C@@]2(C)C1CC[C@]2(O)C(=O)CO (some centres not stated)
0.992

What does the data say about its normalized growth? Entry: CCOc1ccc(C(=O)c2cc(O)c(OC)c(OC)c2O)cc1
0.938

What does the data say about its normalized growth? Entry: COc1ccc([C@H]2COc3c(ccc(O)c3OC)C2)c(OC)c1O
0.976

What does the data say about its normalized growth? Entry: CCCCCCCCCCCCCCCCCCOCC(O)CO (configuration not stated)
0.959

What does the data say about its normalized growth? Entry: COc1cccc(OC)c1C(=O)N[C@@H]1C(=O)N2[C@@H]1SC(C)(C)[C@@H]2C(=O)O
0.997

What does the data say about its normalized growth? Entry: CC1=NN(c2ccccc2)C(=O)C1
0.936

What does the data say about its normalized growth? Entry: OCc1c[nH]c2ccccc12
0.926

What does the data say about its normalized growth? Entry: CC(=O)OCC(=O)[C@@]1(O)CCC2C3CCC4=CC(=O)CC[C@]4(C)C3[C@@H](O)C[C@@]21C (some centres not stated)
0.99

What does the data say about its normalized growth? Entry: NC(=O)NO
1.01

What does the data say about its normalized growth? Entry: CC1(C)C=Cc2cc3ccc(=O)oc3cc2O1
0.875

What does the data say about its normalized growth? Entry: NCCc1c[nH]c2ccccc12
0.988

What does the data say about its normalized growth? Entry: C#CC1(O)CCC2C3CCC4=CC(=O)CCC4(C)C3CCC21C (configuration not stated)
0.979

Values from PubChem BioAssay AID1159580
